For each record, write down the corresponding SC1.5 average.
- SYSTEM_UNDER_TEST: Recombinant human liver GK1 (GST-GK) (Homo sapiens)
- Construct: made in house; host or cells: E. coli
- ASSAY_METHOD_TEXT: Glucokinase in vitro assay (G6PDH-coupled, NADH generation)
- Type: biochemical
- TEST_PARAMETERS: concentration of activator that produced a 50% increase in the activity of GK; 5 mM D-glucose, 30° C., pH 7.1
One number for each entry, in µM.

Recorded results for 3 compounds are shown here.
> print(dat)
                                   compound  result.value
1  CC(C)CC(C(=O)Nc1ccn(C)n1)n1ccc(Oc2cc(F)ccc2F)cc1=O (centres unmarked)          16.6
2  CC(C)CC(C(=O)Nc1ccn(C)n1)n1ccc(Oc2ccccc2Cl)cc1=O (centres unmarked)           6.2
3  CC(C)CC(C(=O)Nc1ccn(C)n1)n1ccc(Oc2ccccc2OC(F)(F)F)cc1=O (centres unmarked)           8.8

I have 2 compounds here; please give me SC1.5 average for each one.
1. CC(C)CC(C(=O)Nc1ccn(C)n1)n1ccc(Oc2ccccc2F)cc1=O (centres unmarked)
2. CC(C)CC(C(=O)Nc1ccn(C)n1)n1ccc(Oc2ccccc2C(C)C)cc1=O (centres unmarked)

[8.4, 4.5]

---

- SYSTEM_UNDER_TEST: Recombinant human liver GK1 (GST-GK) (Homo sapiens, UniProt P35557)
- Construct: made in house; host or cells: E. coli
- Sequence (P35557 1-466 isoform P35557-2): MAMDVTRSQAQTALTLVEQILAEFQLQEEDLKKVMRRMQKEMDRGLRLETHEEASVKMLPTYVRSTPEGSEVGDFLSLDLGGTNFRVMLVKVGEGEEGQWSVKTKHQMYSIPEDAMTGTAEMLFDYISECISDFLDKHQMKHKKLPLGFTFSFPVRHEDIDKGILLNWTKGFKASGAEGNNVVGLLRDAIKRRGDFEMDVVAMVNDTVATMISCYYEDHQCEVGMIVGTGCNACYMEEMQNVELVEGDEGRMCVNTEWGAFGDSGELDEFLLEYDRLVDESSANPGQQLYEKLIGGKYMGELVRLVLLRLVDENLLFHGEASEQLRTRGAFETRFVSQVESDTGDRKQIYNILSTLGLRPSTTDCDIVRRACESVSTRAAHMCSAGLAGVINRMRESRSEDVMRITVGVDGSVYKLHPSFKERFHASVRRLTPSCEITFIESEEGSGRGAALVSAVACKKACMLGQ
- ASSAY_METHOD_TEXT: Glucokinase in vitro assay (G6PDH-coupled, NADH generation)
- Type: biochemical
- TEST_PARAMETERS: concentration of activator that produced a 50% increase in the activity of GK; 5 mM D-glucose, 30° C., pH 7.1
Record form. Attribute: SC1.5 average. Fill in for each entry.

Take a look at these entries with their results.
> print(dat)
                                   molecule   assay.metric  result.value
1  CC(C)CC(C(=O)Nc1ccn(C)n1)n1ccc(Oc2ccc(F)cc2)cc1=O (stereo not drawn)  SC1.5 average        >30 µM
2  CC(C)CC(C(=O)Nc1ccn(C)n1)n1ccc(Oc2ccccc2-c2ccccc2)cc1=O (stereo not drawn)  SC1.5 average        >30 µM

Next:
State the recorded SC1.5 average for this entry: CC(C)CC(C(=O)Nc1ccn(C)n1)n1ccc(Oc2cccc(F)c2)cc1=O (stereo not drawn) >30 µM
